Catalogue of apparent KD of MS2 coat protein readings, one per entry.
system: MS2 coat protein; assay: apparent KD of MS2 coat protein; designed switch direction (-1 OFF switch, 1 ON switch): 1; higher = weaker reporter binding; conditions: Eterna round: R95; input ligand: microRNA oligo, concentration not stated
State just the number; it will be interpreted in nM.

Worked set:
>  <seq>
AUUUAACAAGCUUUUUGCUCGUCUUAUAAACAUGAGGAUCACCCAUGUAAUAGCGUGAGAGUAAAUAAUUUAAUUAU [JMF 99] (puzzle: Sensor for hsa-mir-208a)

>  <testTarget>
MS2 coat protein

>  <resultNumber>
48.6

$$$$
>  <seq>
CGUAGGUAGCUGGAGGAUAUCUGAGUGGUAACAUGAGGAUCACCCAUGUGAUGUGAGGAACAUGAGGAGAAGGCUAGCUGCCUGC [JL-ss2-3.13 JL mod] (puzzle: Same State 2)

>  <testTarget>
MS2 coat protein

>  <resultNumber>
42.2

$$$$

Next item in the queue.
Value of measured apparent KD of MS2 coat protein for the entry AGCUAUCGCGUACGAUAGCUGAAGCGUGUACAUGAGGAUCACCCAUGUCAUGUGCAGGCUUUUUGCUCGUCUUAUUG [JL-shm-2.31 JL mod] (puzzle: Sensor for hsa-mir-208a) : 17.2

----------
test system: MS2 coat protein; test: apparent KD of MS2 coat protein, switch OFF state (with FMN for OFF switches, without FMN for ON switches); designed switch direction (-1 OFF switch, 1 ON switch): 1; higher = weaker reporter binding; details: FMN input: 0 or 200 uM; Eterna round: R93 (includes R88 designs)
Catalogue of apparent KD of MS2 coat protein readings, one per entry.

Worked set:
>  <seq>
AAAACACAUGAGGAUCACCCAUGUAAAAACAUGAGAGGAUAUGCAUGGAAAACAUGCUAUGCAGAAGGCUCAUGUG [SS1 - 3]

>  <testTarget>
MS2 coat protein

>  <apparent KD of MS2 coat protein>
34.6 nM

$$$$
>  <seq>
AAACCACAUGAGGAUCACCCAUGUAGAAAUAUGGGAGGAUAUACAAAGACGAAAGUCAAAGUAGAAGGCCUAAAAG [77%, Mat - Mod of Eli, 5]

>  <testTarget>
MS2 coat protein

>  <apparent KD of MS2 coat protein>
97.5 nM

$$$$
>  <seq>
AAGAAACAUGAGGAUCACCCAUGUGAGAAUAACACAGGAUAUGCAAAAGAAAGAAAGAAAGCAGAAGGGUGAAGAA [Mat - Same State 1 - Tesla mod - 53]

>  <testTarget>
MS2 coat protein

>  <apparent KD of MS2 coat protein>
59.1 nM

$$$$

Value of measured apparent KD of MS2 coat protein for the entry UGAAGACAUGAGGAUCACCCAUGUGGGAUUAUGGGAGGAUAUACAAAGACGAGAGUCAGAGUAGAAGGCCUAGGAC [salish99-ss1-119(!)] : 72.9 nM

Value of measured apparent KD of MS2 coat protein for the entry AAUAUACAUGAGGAUCACCCAUGUUUUAAUAGCUGAGGAUAUACGGGUGAAAAUAGCAUAGUAGAAGGCGGGUGUA [SameState1 Malc#9] : 80 nM

Value of measured apparent KD of MS2 coat protein for the entry GAAAAACAUGAGGAUCACCCAUGUAGAAAUAUGGGAGGAUAUACAAAGACGAAAGUCAAAGUAGAAGGCCUCAAAG [JL S1 M-MoE mod 2 In the Red] : 78.2 nM

----------
test system: K4 kissing-loop RNA reporter; assay: apparent KD of K4 kissing-loop reporter; higher = weaker reporter binding; details: Eterna round: R107; input ligand: tryptophan 2.4 mM
Catalogue of apparent KD of K4 kissing-loop reporter readings, one per entry.
State just the number; it will be interpreted in nM.

>  <seq>
AGUGAUGUUGUGUUAUGUUAGGGAAGUGAUCGAGGACCGGUACGGCCGCCACUCGAGUGAUGAGUGAGUGAUGUUUGUUUAGGGA [yytmullin]

>  <testTarget>
K4 kissing-loop RNA reporter

>  <apparent KD of K4 kissing-loop reporter (nM)>
590

$$$$
>  <seq>
GUAGCACUUGAUAGUGAUGUUAUCAAGGACAAGGAUAUCAUCUCAAUGAGAAGGUGUCCUUGAUAACAGCUACGGGAAUAUCCCA [Omei KL FMN A Exc D v1]

>  <testTarget>
K4 kissing-loop RNA reporter

>  <apparent KD of K4 kissing-loop reporter (nM)>
312

$$$$
>  <seq>
GAAAGGAGUGAUGUUCCUGAUAAUUUUAUGAAGGAUAUUCGAUGUGGAAGAAGGUCAUGCAGGCAGCAAGGUUGCGAUCAUAUCA [theeternabot_exclusion_KL_FMN_A_40]

>  <testTarget>
K4 kissing-loop RNA reporter

>  <apparent KD of K4 kissing-loop reporter (nM)>
128

$$$$
>  <seq>
GUCUCAAAAGAGGCAAGCACUAACGAGGACAAGGAUAUCAUCUCAAUGAGAAGGUGUCCUCGUCCUUAGUGAUGUUAAGGAGUGC [Omei KL FMN A SS E v5]

>  <testTarget>
K4 kissing-loop RNA reporter

>  <apparent KD of K4 kissing-loop reporter (nM)>
356

$$$$
>  <seq>
UGAUAGGACAGAAGGAGCGGAAGUGAUGUUUCCAAAUGGAUAAGGUGUCAAAAGACACCCUUCCAGGUAGGUCGCUGUCCUAUCU [ArgBX 14 #Palindromic #SwitchBubble #StaticStem]

>  <testTarget>
K4 kissing-loop RNA reporter

>  <apparent KD of K4 kissing-loop reporter (nM)>
101

$$$$
>  <seq>
CGCAGUGAUGUUGCGAAUAUAAUAACGGAAGGAGCGCGUGAAAACGCAGGUAGGUCGCCGAUUGGUAUGAUGGAAACAUCGUACC [Arginine A K4 9]

>  <testTarget>
K4 kissing-loop RNA reporter;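 note: bound reporter read as fluorescence of individual clusters on recovered sequencing chips by microscopy, with normalized cluster intensities fitted with a binding model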

>  <apparent KD of K4 kissing-loop reporter (nM)>
122

$$$$

Value of measured apparent KD of K4 kissing-loop reporter for the entry UGGUGCCAUUGGCGGGUAGAUAGUGGUGGCAAGGAUAUGUGAGCGAACAGAAGGUGCAUCAAGUUCAGUGAUGUUGGGCUCGAUU [theeternabot_sameState_KL_FMN_A_20] : 234

Value of measured apparent KD of K4 kissing-loop reporter for the entry UUUAGGAGCGGUGUUGAUUAGGGAGCGGAAGGAGCGCCGAUUAUGGCAGGUAGGUCGCCGGAAUGUAGUGAUGUUGCAUAGAGGG [ExArgA.V] : 166

Value of measured apparent KD of K4 kissing-loop reporter for the entry GCAUCCAUGGCAGGAUAUAGGUUCGUGGAGUGAUGUUCCAUAGCCCGAGUGAUGUUCGUUAUCCGCCUAGAAGGGCCAUGGAUGC [whbob_Ex_FMNB__2th213] : 203

Value of measured apparent KD of K4 kissing-loop reporter for the entry AGCAGUGAUGUUGCAUUUAUAAUGACCGAUACCAGUAUCGAUAGAUACCCUUGGCAGCGGAUUUCCGCAACGACUAGGAAACUAG [Ex Theophylline A K4 14] : 283

Value of measured apparent KD of K4 kissing-loop reporter for the entry GAUGAAGAGUCGUUAGUUAGGGCUUUCGAUACCAGCGCCCGUCCACGCCCUUGGCAGCGAUUGAAAGAGUGAUGUUCUGUCAGGA [theeternabot_exclusion_KL_Theo_A_31] : 289

----------
test system: MS2 coat protein; assay: apparent KD of MS2 coat protein; higher = weaker reporter binding; details: Eterna round: R107; input ligand: arginine 13.2 mM
Outcome label depends on apparent KD of MS2 coat protein relative to 60 nM: at/above gives Fulfilled, below gives Not fulfilled.

Example results:
>  <seq>
AGUGCUACGUGUAAUCAAAGAGAACCAGAUACCAGAUUAGCAUACAUCCCUUGGCAGCUGCAUACAUGAGGAUCACCCAUGUCAG [theeternabot_exclusion_MS2_Theo_A_31]

>  <cat>
Not fulfilled

$$$$
>  <seq>
UUAUGCAGGUCGGCCGCCACUACACACAUGAGGAUCACCCAUGUAGUUACUGGGUGAAGUGGCAGUAGGACCGGGACCUGCAUAU [Brourdmod05]

>  <cat>
Fulfilled

$$$$
>  <seq>
GCCUAGCAUCGAAGGAGCGCUGGUGAAACUGACUAAUAUACAUGAGGAUCACCCAUGUGCUAGCAGGUAGGUCGCGAUGCUAGGC [SSAB NP+V+V2 #11]

>  <cat>
Not fulfilled

$$$$
>  <seq>
ACGACGCAUAGUGAUACCAGUAGAACAUGAGGAUCACCCAUGUCAGAUAUGUUCUAAUACUGCCCUUGGCAGCACUAUGCGUCAG [SSTheo B #4]

>  <cat>
Fulfilled

$$$$
>  <seq>
CUAUGCAGGUCGGCCGCCACUACACACAUGAGGAUCACCCAUGUAGUUACUGGGUGAAGUGGCAGUAGGACCGGGACCUGCACAU [Brourdmod15]

>  <cat>
Fulfilled

$$$$
>  <seq>
GUUUAAAGGUCGGCCGCCACUGUAGGAUGUGUUCUUUCACAUGAGGAUCACCCAUGUUGUUAUUAUAGGACCGGGAUUUUAGGAC [39MS split4]

>  <cat>
Not fulfilled

$$$$

Query: I'd appreciate it if you could say whether GUACAUGAGGAUCACCCAUGUAUAGUUGAAGGAGCGACCGGUGGGUCAGGUAGGUCGCAGCGCAUGGCGUCCACGCGUGUAUGCC [#1 Exclusion - Arginine A Attempt #29 (Inspired by Pi)] has apparent KD of MS2 coat protein at least equal to 60 nM.
Reply: Not fulfilled

Query: I'd appreciate it if you could say whether ACAUGUUGGUGGUAUCUACGAAGGCGGAAACGAGGACCGGUACGGCCGCCACUCGGCGACAUGAGGAUCACCCAUGUGGUUAAGA [Exclusion - Tryptophan A (Freestyle 6)] has apparent KD of MS2 coat protein at least equal to 60 nM.
Reply: Not fulfilled

Query: I'd appreciate it if you could say whether GGGCCCGGGCGCGAGCCCGGGCCCAUUGAUACCAGUGAUAUAUAGCGCCCUUGGCAGCGAAUCCUAACAUGAGGAUCACCCAUGU [5.I] has apparent KD of MS2 coat protein at least equal to 60 nM.
Reply: Not fulfilled

Query: I'd appreciate it if you could say whether CGGUCGGUCGGUCGGUGAUUAUGGGAUGAAGGAGCGUGGGAAGCUACAGGUAGGUCGCAUCCGAAACAUGAGGAUCACCCAUGUU [#21 Same State - Arginine A] has apparent KD of MS2 coat protein at least equal to 60 nM.
Reply: Not fulfilled
